Entry source: patent US10570121B2

measured target: WT EZH2 (Homo sapiens (Human))
Sequence (Q15910 whole entry, looked up): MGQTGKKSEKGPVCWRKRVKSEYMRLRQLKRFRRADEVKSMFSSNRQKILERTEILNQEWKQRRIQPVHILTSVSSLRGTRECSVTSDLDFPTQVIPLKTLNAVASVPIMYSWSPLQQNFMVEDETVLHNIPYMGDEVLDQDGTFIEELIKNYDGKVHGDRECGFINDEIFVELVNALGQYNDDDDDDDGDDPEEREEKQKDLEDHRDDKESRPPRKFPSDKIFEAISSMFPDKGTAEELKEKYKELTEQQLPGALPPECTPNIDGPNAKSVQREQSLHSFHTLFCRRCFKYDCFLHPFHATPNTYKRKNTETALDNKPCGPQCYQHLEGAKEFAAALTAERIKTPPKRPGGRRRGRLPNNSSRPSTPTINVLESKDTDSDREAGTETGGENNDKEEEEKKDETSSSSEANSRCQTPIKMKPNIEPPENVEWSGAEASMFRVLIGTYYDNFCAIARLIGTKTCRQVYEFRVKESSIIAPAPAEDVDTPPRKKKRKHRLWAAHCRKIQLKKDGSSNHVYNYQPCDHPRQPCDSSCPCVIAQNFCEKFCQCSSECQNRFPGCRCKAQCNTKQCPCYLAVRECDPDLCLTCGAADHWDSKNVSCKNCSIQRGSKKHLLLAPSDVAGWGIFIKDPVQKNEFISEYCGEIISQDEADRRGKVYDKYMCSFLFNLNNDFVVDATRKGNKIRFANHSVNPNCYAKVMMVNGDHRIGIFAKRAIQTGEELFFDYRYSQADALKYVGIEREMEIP
Sequence (O75530 whole entry partner, looked up): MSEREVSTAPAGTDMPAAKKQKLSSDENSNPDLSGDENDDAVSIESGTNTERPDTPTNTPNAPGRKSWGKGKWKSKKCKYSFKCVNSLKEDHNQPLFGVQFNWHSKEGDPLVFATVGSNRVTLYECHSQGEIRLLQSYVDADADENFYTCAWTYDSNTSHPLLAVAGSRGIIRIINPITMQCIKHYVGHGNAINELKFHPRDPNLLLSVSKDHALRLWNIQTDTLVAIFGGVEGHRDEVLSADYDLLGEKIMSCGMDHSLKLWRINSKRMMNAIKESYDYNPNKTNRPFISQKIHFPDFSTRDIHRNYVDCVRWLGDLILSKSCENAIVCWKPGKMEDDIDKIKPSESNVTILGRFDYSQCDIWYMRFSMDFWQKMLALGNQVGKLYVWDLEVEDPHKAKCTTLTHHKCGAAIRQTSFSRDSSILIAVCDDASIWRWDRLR
Sequence (Q15022 whole entry partner, looked up): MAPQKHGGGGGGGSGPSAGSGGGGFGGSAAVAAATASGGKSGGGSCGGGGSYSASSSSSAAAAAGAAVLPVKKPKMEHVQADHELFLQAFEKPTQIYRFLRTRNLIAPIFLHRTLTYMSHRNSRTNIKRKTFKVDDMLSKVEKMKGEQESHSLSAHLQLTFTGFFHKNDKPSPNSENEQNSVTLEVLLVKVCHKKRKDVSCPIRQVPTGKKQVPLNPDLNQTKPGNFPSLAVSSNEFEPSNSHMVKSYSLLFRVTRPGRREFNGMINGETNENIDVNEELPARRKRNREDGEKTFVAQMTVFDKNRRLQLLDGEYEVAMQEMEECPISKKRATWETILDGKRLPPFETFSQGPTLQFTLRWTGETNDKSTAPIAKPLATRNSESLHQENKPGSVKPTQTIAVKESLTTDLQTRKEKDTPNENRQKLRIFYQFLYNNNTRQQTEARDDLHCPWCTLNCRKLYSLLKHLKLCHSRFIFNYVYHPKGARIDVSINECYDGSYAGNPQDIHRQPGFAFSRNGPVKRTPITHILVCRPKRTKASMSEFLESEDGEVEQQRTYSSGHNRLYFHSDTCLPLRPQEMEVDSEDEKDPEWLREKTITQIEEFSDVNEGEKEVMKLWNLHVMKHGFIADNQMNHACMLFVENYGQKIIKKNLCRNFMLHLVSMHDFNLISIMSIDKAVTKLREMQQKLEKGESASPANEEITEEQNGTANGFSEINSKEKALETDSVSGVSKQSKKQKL
Sequence (Q09028 whole entry partner, looked up): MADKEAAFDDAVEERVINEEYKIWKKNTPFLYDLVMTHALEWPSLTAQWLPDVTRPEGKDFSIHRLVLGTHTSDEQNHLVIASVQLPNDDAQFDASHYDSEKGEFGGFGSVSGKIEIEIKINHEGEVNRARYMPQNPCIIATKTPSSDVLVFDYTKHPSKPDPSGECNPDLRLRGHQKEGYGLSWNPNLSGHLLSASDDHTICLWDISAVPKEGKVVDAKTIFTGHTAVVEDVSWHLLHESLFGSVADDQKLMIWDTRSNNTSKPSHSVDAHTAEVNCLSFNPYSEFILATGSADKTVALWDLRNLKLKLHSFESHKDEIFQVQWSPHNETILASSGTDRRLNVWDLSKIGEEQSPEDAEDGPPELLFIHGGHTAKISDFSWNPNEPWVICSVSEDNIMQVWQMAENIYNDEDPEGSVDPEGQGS
experiment notes: WT EZH2 nucleosome assay (10X SAM, high SAM conditions)
Type: biochemical
condition context: 15 uM SAM, Ki app from competitive inhibition fit, read-out: WT EZH2 Nucleosome assay (10X SAM) Ki
result type: Ki
Reply with the number, then its unit.

// sample Cc1cc(C)c(CN2CCc3c(Cl)cc([C@H](CO)[C@@H]4CCCO4)c(Cl)c3C2=O)c(=O)[nH]1 , its Ki was 0.004 µM

# Ki of Cc1cc(C)c(CN2CCc3c(Cl)cc(C(CO)N4CCOCC4)c(Cl)c3C2=O)c(=O)[nH]1 (racemic) [Example 60] = 0.031 µM

The molecule listed as Cc1cc(OC(F)F)c(CN2CCc3c(Cl)cc(C(CO)C4CCOC4)c(Cl)c3C2=O)c(=O)[nH]1 (single isomer, unassigned) [Example 95] shows Ki equal to 0.001 µM

get_value(item= Cc1cc(C)c(CN2CCc3c(Cl)cc(C(CO)N4CC[C@@H](F)C4)c(Cl)c3C2=O)c(=O)[nH]1 (single isomer, unassigned) [Example 7] , readout=Ki) returns 0.171 µM

Recorded Ki (molecule COC(C(C)=O)c1cc(Cl)c2c(c1Cl)C(=O)N(Cc1c(C)cc(C)[nH]c1=O)CC2 (racemic) ): 0.215 µM

For COC(c1cc(Cl)c2c(c1Cl)C(=O)N(Cc1c(C)cc(C)[nH]c1=O)CC2)C1CCS(=O)(=O)C1 (single isomer, unassigned) [Example 148] the molecule record lists Ki as 0.056 µM

* * *

measured target: EZH2 Mutant Y641N (Homo sapiens (Human), UniProt Q15910, Y641N)
Sequence (Q15910 whole entry Y641N, looked up, one chain of several): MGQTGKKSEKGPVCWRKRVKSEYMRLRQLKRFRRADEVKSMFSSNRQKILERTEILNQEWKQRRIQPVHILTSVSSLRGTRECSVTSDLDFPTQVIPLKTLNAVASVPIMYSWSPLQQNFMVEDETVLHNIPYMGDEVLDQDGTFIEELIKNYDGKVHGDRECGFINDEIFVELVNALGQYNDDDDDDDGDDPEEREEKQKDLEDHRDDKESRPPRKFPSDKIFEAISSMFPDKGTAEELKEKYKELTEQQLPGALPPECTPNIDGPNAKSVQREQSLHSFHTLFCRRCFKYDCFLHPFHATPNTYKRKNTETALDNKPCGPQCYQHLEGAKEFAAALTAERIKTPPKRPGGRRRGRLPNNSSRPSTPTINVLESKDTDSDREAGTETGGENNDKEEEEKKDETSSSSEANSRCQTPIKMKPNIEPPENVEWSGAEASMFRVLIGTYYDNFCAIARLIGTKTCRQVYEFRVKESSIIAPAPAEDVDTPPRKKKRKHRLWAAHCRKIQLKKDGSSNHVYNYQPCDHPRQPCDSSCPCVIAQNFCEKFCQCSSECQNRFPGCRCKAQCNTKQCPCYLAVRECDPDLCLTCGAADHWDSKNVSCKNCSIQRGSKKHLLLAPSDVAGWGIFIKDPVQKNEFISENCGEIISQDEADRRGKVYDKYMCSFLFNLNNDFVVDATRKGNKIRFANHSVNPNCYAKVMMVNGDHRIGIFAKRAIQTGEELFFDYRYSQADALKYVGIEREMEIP
experiment notes: EZH2 Mutant Y641N nucleosome assay
Assay type: biochemical
condition context: PRC2 4-protein complex 6 nM, 1.5 μM SAM, HeLa oligonucleosomes; read-out: EZH2 Mutant Y641N Nucleosome assay IC50
For each of the molecules below, state its pIC50.
Notebook: values listed as pIC50 are -log10 of the concentration (mol/L).

EZH2 Mutant Y641N (Homo sapiens (Human), UniProt Q15910, Y641N) assay, molecule Cc1cc(C)c(CN2CCc3c(Cl)cc(C(CO)N4CCOCC4)c(Cl)c3C2=O)c(=O)[nH]1 (single isomer, unassigned) [Example 68] , recorded pIC50 = 7.13

Record COC(c1cc(C)c2c(c1Cl)C(=O)N(Cc1c(C)cc(C)[nH]c1=O)CC2)C1CCS(=O)(=O)CC1 (single isomer, unassigned) [Example 131] has EZH2 Mutant Y641N (Homo sapiens (Human), UniProt Q15910, Y641N) pIC50 equal to 8.30

# lookup: Cc1cc(C)c(CN2CCc3c(Cl)cc(C(C)C4CCN(C(=O)CO)CC4)c(Cl)c3C2=O)c(=O)[nH]1 (racemic) [Example 24] on EZH2 Mutant Y641N (Homo sapiens (Human), UniProt Q15910, Y641N), pIC50 = 8.10

Observed pIC50, EZH2 Mutant Y641N (Homo sapiens (Human), UniProt Q15910, Y641N), COC(c1cc(Cl)c2c(c1Cl)C(=O)N(Cc1c(C)cc(C)[nH]c1=O)CC2)C1(F)CCN(C)CC1 (single isomer, unassigned) [Example 121] : 6.59

The observed pIC50 for Cc1cc(C)c(CN2CCc3c(Cl)cc([C@@H](CO)[C@H]4CCCO4)c(Cl)c3C2=O)c(=O)[nH]1 [Example 45] when tested with EZH2 Mutant Y641N (Homo sapiens (Human), UniProt Q15910, Y641N) stands at 6.46

Result for COC(c1cc(Cl)c2c(c1Cl)C(=O)N(Cc1c(C)cc(C)[nH]c1=O)CC2)C1CC[S+]([O-])CC1 (single isomer, unassigned) [Example 115] , tested on EZH2 Mutant Y641N (Homo sapiens (Human), UniProt Q15910, Y641N), pIC50: 8.30

The measured pIC50 that Cc1cc(C)c(CN2CCc3c(C)cc(C(C)C4CN(S(C)(=O)=O)C4)c(Cl)c3C2=O)c(=O)[nH]1 (single isomer, unassigned) [Example 193] showed for EZH2 Mutant Y641N (Homo sapiens (Human), UniProt Q15910, Y641N) is 8.00

Record Cc1cc(C)c(CN2CCc3c(Cl)cc(C(CO)N4CC[C@@H](F)C4)c(Cl)c3C2=O)c(=O)[nH]1 (stereo partly drawn) [Example 5] / EZH2 Mutant Y641N (Homo sapiens (Human), UniProt Q15910, Y641N), pIC50 recorded as 6.72

Summary line: COC(c1cc(Cl)c2c(c1Cl)C(=O)N(Cc1c(C)cc(C)[nH]c1=O)CC2)[C@H](C)CO (single isomer, unassigned) [Example 140] , EZH2 Mutant Y641N (Homo sapiens (Human), UniProt Q15910, Y641N), reported pIC50 = 5.93

COC(c1cc(Cl)c2c(c1Cl)C(=O)N(Cc1c(C)cc(C)[nH]c1=O)CC2)[C@@H](C)CO (single isomer, unassigned) [Example 142] tested on EZH2 Mutant Y641N (Homo sapiens (Human), UniProt Q15910, Y641N) gave pIC50: 6.96

With EZH2 Mutant Y641N (Homo sapiens (Human), UniProt Q15910, Y641N) as the test system, COC(c1cc(Cl)c2c(c1Cl)C(=O)N(Cc1c(C)cc(C)[nH]c1=O)CC2)C1CN(C(=O)[C@H](C)O)C1 (single isomer, unassigned) [Example 172] showed pIC50 of 7.92

Tested on EZH2 Mutant Y641N (Homo sapiens (Human), UniProt Q15910, Y641N), the item COC(c1cc(Cl)c2c(c1Cl)C(=O)N(Cc1c(C)cc(C)[nH]c1=O)CC2)C1CN(C(=O)[C@@H](C)O)C1 (single isomer, unassigned) [Example 171] showed pIC50 equal to 5.58
